# TEST DETAILS: Selectivity index, ratio of CC50 for human MT4 cells to EC50 for HIV1 cells
# Format: toxicity, cell-based
# EXPERIMENTAL SETUP: read-out: Ratio CC50/EC50
PROPERTY LABEL: selectivity ratio

SMILES STRUCTURE	selectivity ratio
O=C1c2ccccc2C(=O)N1CCO/C(=N\c1ccc(Cl)cc1Cl)SS/C(=N/c1ccc(Cl)cc1Cl)OCCN1C(=O)c2ccccc2C1=O	> 25
O=C1c2ccccc2C(=O)N1CCO/C(=N\c1ccc([N+](=O)[O-])cc1)SS/C(=N/c1ccc([N+](=O)[O-])cc1)OCCN1C(=O)c2ccccc2C1=O	> 1430

Prompt line: Give a short answer stating reported selectivity ratio for `O=C1c2ccccc2C(=O)N1CCO/C(=N\c1cc(F)cc(F)c1)SS/C(=N/c1cc(F)cc(F)c1)OCCN1C(=O)c2ccccc2C1=O` .
Response line: < 1

Prompt line: Give a short answer stating reported selectivity ratio for `Cc1ccccc1/N=C(\OCCN1C(=O)c2ccccc2C1=O)SS/C(=N/c1ccccc1C)OCCN1C(=O)c2ccccc2C1=O` .
Response line: < 1
